target.or.system: recombinant human liver glycogen phosphorylase (Homo sapiens, UniProt P06737)
Construct: made in house; host or cells: Sf9 insect cells (crude homogenate, diluted, used as the enzyme solution)
Sequence (P06737 1-847): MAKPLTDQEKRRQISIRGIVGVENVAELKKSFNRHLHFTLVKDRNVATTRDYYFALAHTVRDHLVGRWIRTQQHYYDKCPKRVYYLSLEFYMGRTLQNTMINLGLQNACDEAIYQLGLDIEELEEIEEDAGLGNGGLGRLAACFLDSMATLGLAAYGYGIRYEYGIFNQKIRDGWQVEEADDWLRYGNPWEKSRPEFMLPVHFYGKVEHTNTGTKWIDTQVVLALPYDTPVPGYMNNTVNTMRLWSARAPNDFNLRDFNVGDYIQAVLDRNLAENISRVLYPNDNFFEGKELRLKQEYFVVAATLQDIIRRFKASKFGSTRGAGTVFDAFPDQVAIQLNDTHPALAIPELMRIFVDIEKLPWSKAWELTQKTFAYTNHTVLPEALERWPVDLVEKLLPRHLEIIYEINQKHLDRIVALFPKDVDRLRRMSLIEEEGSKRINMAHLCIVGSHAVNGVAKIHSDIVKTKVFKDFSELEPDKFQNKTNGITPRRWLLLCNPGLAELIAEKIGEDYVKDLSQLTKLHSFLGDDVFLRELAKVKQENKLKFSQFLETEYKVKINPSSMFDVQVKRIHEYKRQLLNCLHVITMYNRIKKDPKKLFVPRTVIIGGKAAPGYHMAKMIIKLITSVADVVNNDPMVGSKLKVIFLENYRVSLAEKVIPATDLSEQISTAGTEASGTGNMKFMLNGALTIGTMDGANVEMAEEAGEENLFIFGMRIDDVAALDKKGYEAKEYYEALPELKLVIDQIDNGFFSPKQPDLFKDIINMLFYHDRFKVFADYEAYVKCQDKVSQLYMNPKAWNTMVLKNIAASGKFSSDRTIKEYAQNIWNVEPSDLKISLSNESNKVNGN
assay.comment: Measuring liver glycogen phosphorylase activity (forward reaction system, NADPH absorbance at 340 nm)
Type: biochemical
condition.notes: enzyme inhibitory activity with respect to liver glycogen phosphorylase; class symbols
parameter: IC50

Query: Look up IC50 for this molecule: Cc1noc(C)c1CNC(=O)c1cc(NC(=O)c2cc(F)c(F)cc2Cl)[nH]n1
Reply: < 100 nM

Query: Look up IC50 for this molecule: O=C(NCc1csc(-c2cccnc2)n1)c1cc(NC(=O)c2cc(F)c(F)cc2Cl)[nH]n1
Reply: < 100 nM

Query: Look up IC50 for this molecule: CN(C)c1ccc(CNC(=O)c2cc(NC(=O)c3cc(F)c(F)cc3Cl)[nH]n2)cn1 [Example 1-129]
Reply: < 100 nM

Query: Look up IC50 for this molecule: O=C(NCc1cc(Br)c(Br)s1)c1cc(NC(=O)c2cc(F)c(F)cc2Cl)[nH]n1
Reply: < 100 nM

Query: Look up IC50 for this molecule: Cl.O=C(NCc1ccncc1)c1cc(NC(=O)c2cc(F)c(F)cc2Cl)[nH]n1
Reply: < 100 nM

Query: Look up IC50 for this molecule: Cl.Cn1c(CNC(=O)c2cc(NC(=O)c3cc(F)c(F)cc3Cl)[nH]n2)nc2ccccc21
Reply: < 100 nM

Query: Look up IC50 for this molecule: Cc1ccc(CNC(=O)c2cc(NC(=O)c3cc(F)c(F)cc3Cl)[nH]n2)cc1
Reply: < 100 nM

Query: Look up IC50 for this molecule: COCCN(C(=O)c1cc(NC(=O)c2cc(F)c(F)cc2Cl)[nH]n1)C1CCCCC1
Reply: < 100 nM
